Data origin, for the record: the RNAGym collection of RNA variant scans (doi:10.1126/science.aae0568)

B1: tRNA (parent)
chain: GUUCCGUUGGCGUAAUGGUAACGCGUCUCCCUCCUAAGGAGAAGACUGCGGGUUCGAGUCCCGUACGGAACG

- Variants of: B1
- Test details: yeast fitness relative to wild type (ratio to wild type); higher = fitter; tRNA-Arg(CCU), competitive growth, 37 C, YPD
Fewer inactive variants are shown than the library holds.
Decision: yeast fitness >= 0.8 yields Satisfied, all other cases yield Not satisfied.

Consider the worked cases shown below.
{"Variant descriptor": "U8C A42C", "Category label": "Satisfied"}
{"Variant descriptor": "G41A A65G G67A", "Category label": "Not satisfied"}

Does the variant C4G C46U have recorded yeast fitness that is 0.8 or more?
Satisfied

Does A15G C30U C55U have a reported yeast fitness of at least 0.8?
Not satisfied

Identify whether the reported yeast fitness of the following variant is 0.8 or greater: C5G A36U A42G A57C
Not satisfied

Determine whether measured yeast fitness meets or exceeds 0.8 for C5G U7C G10A C29G
Not satisfied

Hi team, for C4U G18C A57C , is the recorded yeast fitness at or above 0.8?
Not satisfied

Evaluate G10A A36C A70G : yeast fitness at minimum 0.8?
Not satisfied

Is yeast fitness for C5A G10C G12A G23A at or above 0.8?
Not satisfied

Entry G10C G12C C46G C55U : is its yeast fitness no less than 0.8?
Not satisfied

Check if yeast fitness >= 0.8 (inclusive). Item: U28C G41C C49G
Not satisfied

Has C4A G17C G23C A45C U54C a recorded yeast fitness greater than or equal to 0.8?
Not satisfied

Does C5U A21U U32A A40U have a reported yeast fitness of at least 0.8?
Not satisfied
